Taken from the supplement of paper PMC10567573.

B1: MYBL2 (parent)
chain: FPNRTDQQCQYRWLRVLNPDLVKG

variants of: B1; experiment: protein stability index of a GFP-peptide fusion (GPS, HEK-293T) (PSI 1-6); higher = more stable; conditions: c terminus: a fixed tail appended;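 further: lentivirally expressed fusions sorted by FACS into six bins by GFP to DsRed ratio, PSI derived from sequencing read proportions per bin multiplied by bin number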
quantity_name: protein stability index
Give a plain numeric answer without units written out.

Would you mind telling me what protein stability index value was observed for `P2N` ?
2.06

Would you mind telling me what protein stability index value was observed for `V22P` ?
1.83

Would you mind telling me what protein stability index value was observed for `Y11F` ?
1.95

Would you mind telling me what protein stability index value was observed for `C9L` ?
2.26

Would you mind telling me what protein stability index value was observed for `Q10P` ?
2.18

Would you mind telling me what protein stability index value was observed for `P2E` ?
2.67

Would you mind telling me what protein stability index value was observed for `V16E` ?
2.44

Would you mind telling me what protein stability index value was observed for `W13D` ?
2.98

Would you mind telling me what protein stability index value was observed for `P2A` ?
2.17

Would you mind telling me what protein stability index value was observed for `R4M` ?
2.2

Would you mind telling me what protein stability index value was observed for `R15Y` ?
2.14

Would you mind telling me what protein stability index value was observed for `L21I` ?
2.85

Would you mind telling me what protein stability index value was observed for `D20F` ?
1.68

Would you mind telling me what protein stability index value was observed for `C9E` ?
1.86

Would you mind telling me what protein stability index value was observed for `Q8N` ?
2

Would you mind telling me what protein stability index value was observed for `P19M` ?
2.2

Would you mind telling me what protein stability index value was observed for `T5F` ?
1.49

Would you mind telling me what protein stability index value was observed for `P19S` ?
2.06

Would you mind telling me what protein stability index value was observed for `C9F` ?
2.38

Would you mind telling me what protein stability index value was observed for `Q7L` ?
1.69

Would you mind telling me what protein stability index value was observed for `L14T` ?
1.64

Would you mind telling me what protein stability index value was observed for `R15L` ?
1.98

Would you mind telling me what protein stability index value was observed for `D6Q` ?
2.91

Would you mind telling me what protein stability index value was observed for `N18W` ?
2.05

Would you mind telling me what protein stability index value was observed for `V16D` ?
2.99

Would you mind telling me what protein stability index value was observed for `R15K` ?
1.31

Would you mind telling me what protein stability index value was observed for `L21K` ?
2.01

Would you mind telling me what protein stability index value was observed for `K23R` ?
2.21

Would you mind telling me what protein stability index value was observed for `R4C` ?
1.51

Would you mind telling me what protein stability index value was observed for `Q10A` ?
1.45

Would you mind telling me what protein stability index value was observed for `Q8K` ?
1.97

Would you mind telling me what protein stability index value was observed for `V22D` ?
2.02

Would you mind telling me what protein stability index value was observed for `R12S` ?
2.25

Would you mind telling me what protein stability index value was observed for `N3V` ?
1.91

Would you mind telling me what protein stability index value was observed for `R12M` ?
1.96

Would you mind telling me what protein stability index value was observed for `C9T` ?
2.9

Would you mind telling me what protein stability index value was observed for `Q10G` ?
1.48

Would you mind telling me what protein stability index value was observed for `D20I` ?
1.74

Would you mind telling me what protein stability index value was observed for `D20V` ?
1.14

Would you mind telling me what protein stability index value was observed for `N3K` ?
1.77

Would you mind telling me what protein stability index value was observed for `R12K` ?
2.25

Would you mind telling me what protein stability index value was observed for `L21M` ?
2.27

Would you mind telling me what protein stability index value was observed for `Y11A` ?
2.16

Would you mind telling me what protein stability index value was observed for `L17M` ?
1.95

Would you mind telling me what protein stability index value was observed for `K23W` ?
1.27

Would you mind telling me what protein stability index value was observed for `Q7A` ?
2.53

Would you mind telling me what protein stability index value was observed for `T5P` ?
2.05

Would you mind telling me what protein stability index value was observed for `V22M` ?
2.08

Would you mind telling me what protein stability index value was observed for `Y11Q` ?
1.85

Would you mind telling me what protein stability index value was observed for `N18E` ?
2.16

Would you mind telling me what protein stability index value was observed for `P2T` ?
1.81

Would you mind telling me what protein stability index value was observed for `V16Y` ?
1.72

Would you mind telling me what protein stability index value was observed for `P19Y` ?
2.02

Would you mind telling me what protein stability index value was observed for `Y11L` ?
2.1

Would you mind telling me what protein stability index value was observed for `K23Q` ?
2.1

Would you mind telling me what protein stability index value was observed for `W13N` ?
2.81

Would you mind telling me what protein stability index value was observed for `Q10W` ?
2.4

Would you mind telling me what protein stability index value was observed for `P19T` ?
1.67

Would you mind telling me what protein stability index value was observed for `Q8W` ?
1.97

Would you mind telling me what protein stability index value was observed for `N3R` ?
2.1

Would you mind telling me what protein stability index value was observed for `Y11H` ?
2.24

Would you mind telling me what protein stability index value was observed for `Q10F` ?
1.75

Would you mind telling me what protein stability index value was observed for `V22K` ?
1.64

Would you mind telling me what protein stability index value was observed for `Q7R` ?
2.63

Would you mind telling me what protein stability index value was observed for `P2V` ?
3.52

Would you mind telling me what protein stability index value was observed for `N18R` ?
3.02

Would you mind telling me what protein stability index value was observed for `L14V` ?
2.21

Would you mind telling me what protein stability index value was observed for `C9M` ?
2.45

Would you mind telling me what protein stability index value was observed for `N18F` ?
2.73

Would you mind telling me what protein stability index value was observed for `R15C` ?
2.19

Would you mind telling me what protein stability index value was observed for `G24A` ?
1.41

Would you mind telling me what protein stability index value was observed for `F1L` ?
2.08

Would you mind telling me what protein stability index value was observed for `P19L` ?
1.76

Would you mind telling me what protein stability index value was observed for `D6R` ?
1.41

Would you mind telling me what protein stability index value was observed for `P2Q` ?
1.93

Would you mind telling me what protein stability index value was observed for `N3P` ?
1.93

Would you mind telling me what protein stability index value was observed for `C9G` ?
1.97

Would you mind telling me what protein stability index value was observed for `C9R` ?
2.85

Would you mind telling me what protein stability index value was observed for `D6N` ?
1.8

Would you mind telling me what protein stability index value was observed for `K23P` ?
2.06
